Consider compounds characterized by their Kd with ABL1(DKIN) (Homo sapiens, UniProt P00519).

- compound.structure: "CC(C)(C)c1cc(NC(=O)Nc2ccc(Cl)cc2)on1"
  Kd: "> 10 µM"
- compound.structure: "CSc1ccc(NC(=O)Nc2cc(C(C)(C)C)no2)cc1"
  Kd: "> 10 µM"
- compound.structure: "Cc1ccc(-n2nc(C(C)(C)C)cc2NC(=O)Nc2ccc(Br)cc2C(F)(F)F)cc1"
  Kd: "> 10 µM"

Kd of CC(C)(C)c1cc(NC(=O)Nc2ccc(NC(=O)Cc3sc(-c4ccc(Cl)cc4)nc3-c3ccccc3)cc2)no1 on ABL1(DKIN) (Homo sapiens, UniProt P00519)? 0.1 to 1 µM

// lookup Kd | system=ABL1(DKIN) (Homo sapiens, UniProt P00519) | key= COc1cc2ncnc(Nc3ccc(NC(=O)Nc4cc(C(C)(C)C)on4)cc3)c2cc1OC < 0.1 µM

---

biological target: ABL1(T3151) (Homo sapiens, UniProt P00519, T315I); construct: made in house; host or cells: T7 bacteriophage display; test: Phage-display competition binding assay (Kd), ABL1(T3151)
pKd: −log10 of the molar value.
pKd values, listed per item

- molecule: "CC(C)(C)c1cc(NC(=O)Nc2ccc(NC(=O)c3cccc4nc5cc(O)cc(O)c5cc34)cc2)no1 [Compound N139]"
  study.system: "ABL1(T3151) (Homo sapiens, UniProt P00519, T315I)"
  pKd: "< 5.00"

Continue with the molecule presented below.
Given the entry Cc1ccc(C(=O)Nc2ccc(NC(=O)Nc3nc(C(C)(C)C)cs3)cc2)cc1 [Compound N135] , report its measured pKd. < 5.00

---

target: ABL1(Y253F) (Homo sapiens, UniProt P00519, Y253F); assay: Phage-display competition binding assay (Kd), ABL1(Y253F)
pKd: −log10 of the molar value.
Listed below: pKd values for each entry.

- molecule: "COc1cc2ncnc(Nc3ccc(NC(=O)Nc4cc(C(C)(C)C)on4)cc3)c2cc1OC [Compound O5]"
  reported.value: "6.00 to 7.00"

Here's the next entry for you.
For the record COc1cc2nc(Cl)nc(Nc3ccc(NC(=O)Nc4cc(C(C)(C)C)on4)cc3)c2cc1OC [Compound O1] , what value of pKd is listed for ABL1(Y253F) (Homo sapiens, UniProt P00519, Y253F)? < 5.00

---

biological target: ABL1(E274K) (Homo sapiens, UniProt P00519, E255K); experiment: Phage-display competition binding assay (Kd), ABL1(E274K)
pKd: −log10 of the molar value.
measure.name: pKd

Could you tell me which pKd is on file for CC(C)(C)c1cc(NC(=O)Nc2ccc(C(=O)Nc3nccnc3N)cc2)no1 ? < 5.00

---

Molecular target: ABL1(H396P) (Homo sapiens, UniProt P00519, H396P)
Construct: made in house; host or cells: T7 bacteriophage display
Assay: Phage-display competition binding assay (Kd), ABL1(H396P)
Excerpt: The term “ND” represents non-determined values.
pKd: −log10 of the molar value.
pKd overview

- compound.structure: "COc1cc2nc(Cl)nc(Nc3ccc(NC(=O)Nc4cc(C(C)(C)C)on4)cc3)c2cc1OC"
  reported.value: "< 5.00"

Now examine the next entry.
Any idea what pKd was measured for COc1cc2ncnc(Nc3ccc(NC(=O)Nc4cc(C(C)(C)C)on4)cc3)c2cc1OC ? 6.00 to 7.00

meta.source: patent US20100173917A1
